# measurementTarget: Cannabinoid receptor 2 (Rattus norvegicus, UniProt Q9QZN9)
# Sequence (Q9QZN9 whole entry): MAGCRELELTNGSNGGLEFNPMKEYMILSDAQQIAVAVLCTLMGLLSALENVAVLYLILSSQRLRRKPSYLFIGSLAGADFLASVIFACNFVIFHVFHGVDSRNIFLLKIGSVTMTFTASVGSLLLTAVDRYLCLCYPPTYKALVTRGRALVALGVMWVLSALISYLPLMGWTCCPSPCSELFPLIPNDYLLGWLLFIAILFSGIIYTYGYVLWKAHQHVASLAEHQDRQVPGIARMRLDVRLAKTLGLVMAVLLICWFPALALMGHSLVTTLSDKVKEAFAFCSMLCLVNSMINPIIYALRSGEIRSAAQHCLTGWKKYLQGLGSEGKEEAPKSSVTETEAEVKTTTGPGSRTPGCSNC
# assayText: Agonist activity at rat recombinant CB2 receptor expressed in CHO-K1 cells assessed as inhibition of forskolin-stimulated intracellular cAMP level
pEC50: −log10 of the molar value.
Listing: pEC50 of selected compounds

| compound | pEC50 |
| --- | --- |
| CCn1c2ccccc2c2cc(NC(=O)CCc3nc(-c4ccc(F)cc4C#N)no3)ccc21 | 9.89 |
| CCn1c2ccccc2c2cc(NC(=O)CCc3nc(-c4ccc(F)cc4Cl)no3)ccc21 | 9.40 |
| O=C(CCc1nc(-c2ccc(F)cc2Cl)no1)Nc1cnc2ncc(Cl)cc2c1 | 9.40 |
| O=C(CCc1nc(-c2ccc(F)cc2Cl)no1)Nc1ccc(C(F)(F)F)cc1 | 7.24 |
| CC(C)(C)c1cc(NCCCc2nc(-c3ccc(F)cc3Cl)no2)no1 | 6.72 |
| Fc1ccc(-c2noc(CCCNc3cnc4ccc(OC(F)(F)F)cc4c3)n2)c(Cl)c1 | 8.89 |
| O=C(CCc1nc(-c2ccc(F)cc2Cl)no1)Nc1nnc(N2CCCCC2)s1 | 8.96 |
| CCCCCCC(C)(C)c1ccc([C@@H]2C[C@H](O)CC[C@H]2CCCO)c(O)c1 [CP-55940] | 9.47 |
| O=C(CCc1nc(-c2ccc(F)cc2Cl)no1)Nc1ccc(C(F)(F)F)nc1 | 7.14 |
| Fc1ccc(-c2noc(CCCNc3nc4ccc(Cl)cc4s3)n2)c(Cl)c1 | 6.54 |

====

# measurementTarget: Cannabinoid receptor 2 (Homo sapiens)
# assayText: Agonist activity at human recombinant CB2 receptor expressed in Sf9 cells by GTP-europium binding assay
pEC50: −log10 of the molar value.

| compoundSmiles | measurementTarget | pEC50 |
| --- | --- | --- |
| O=C(CCc1nc(-c2ccc(F)cc2Cl)no1)Nc1ccc(C(F)(F)F)cc1Cl | Cannabinoid receptor 2 (Homo sapiens) | 6.43 |
| O=C(CCc1nc(-c2ccc(F)cc2Cl)no1)Nc1cnc2ccc(Cl)cc2c1 | Cannabinoid receptor 2 (Homo sapiens) | 5.85 |
| CCn1c2ccccc2c2cc(NC(=O)CCc3cc(-c4ccccc4F)no3)ccc21 | Cannabinoid receptor 2 (Homo sapiens) | 6.57 |
| CCn1c2ccccc2c2cc(NC(=O)CCc3nc(-c4ccc(F)cc4Cl)no3)ccc21 | Cannabinoid receptor 2 (Homo sapiens) | 8.74 |
| CCn1c2ccccc2c2cc(NC(=O)CCc3nc(-c4ccccc4C(C)C)no3)ccc21 | Cannabinoid receptor 2 (Homo sapiens) | 6.17 |

====

# measurementTarget: Cannabinoid receptor 1 (Homo sapiens)
# Sequence (P21554 whole entry): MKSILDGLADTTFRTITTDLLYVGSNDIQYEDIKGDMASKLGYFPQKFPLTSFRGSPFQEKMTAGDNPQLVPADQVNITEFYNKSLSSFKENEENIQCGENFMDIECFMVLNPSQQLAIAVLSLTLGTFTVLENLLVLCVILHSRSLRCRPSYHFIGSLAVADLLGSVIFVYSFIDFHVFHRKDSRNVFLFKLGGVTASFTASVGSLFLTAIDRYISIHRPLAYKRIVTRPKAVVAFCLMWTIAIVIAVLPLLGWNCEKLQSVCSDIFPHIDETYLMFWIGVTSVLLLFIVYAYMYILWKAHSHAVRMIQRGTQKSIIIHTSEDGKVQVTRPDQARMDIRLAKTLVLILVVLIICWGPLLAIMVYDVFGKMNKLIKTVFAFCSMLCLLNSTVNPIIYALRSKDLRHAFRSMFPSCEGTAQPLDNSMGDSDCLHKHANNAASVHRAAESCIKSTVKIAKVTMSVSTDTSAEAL
# assayText: Agonist activity at human recombinant CB1 receptor expressed in CHO-K1 cells assessed as inhibition of forskolin-stimulated intracellular cAMP level
# Type: functional, cell-based
pEC50: −log10 of the molar value.
Listing: pEC50 of selected molecules

| compoundSmiles | pEC50 |
| --- | --- |
| CC(C)(C)c1ncc(NC(=O)CCc2nc(-c3ccc(F)cc3Cl)no2)cn1 | < 6.00 |
| O=C(CCc1nc(-c2ccc(F)cc2Cl)no1)Nc1nc2ccc(OC(F)(F)F)cc2s1 | < 6.00 |
| Fc1ccc(-c2noc(CCCNc3cnc4ccc(Cl)cc4c3)n2)c(Cl)c1 | 6.25 |
| CCn1c2ccccc2c2cc(NC(=O)CCn3nnc(-c4ccccc4F)n3)ccc21 | < 6.00 |
| O=C(CCc1nc(-c2ccc(F)cc2Cl)no1)Nc1ccc(C(F)(F)F)c(Cl)c1 | < 6.00 |

====

# measurementTarget: Cannabinoid receptor 2 (Homo sapiens, UniProt P34972)
# Sequence (P34972 whole entry): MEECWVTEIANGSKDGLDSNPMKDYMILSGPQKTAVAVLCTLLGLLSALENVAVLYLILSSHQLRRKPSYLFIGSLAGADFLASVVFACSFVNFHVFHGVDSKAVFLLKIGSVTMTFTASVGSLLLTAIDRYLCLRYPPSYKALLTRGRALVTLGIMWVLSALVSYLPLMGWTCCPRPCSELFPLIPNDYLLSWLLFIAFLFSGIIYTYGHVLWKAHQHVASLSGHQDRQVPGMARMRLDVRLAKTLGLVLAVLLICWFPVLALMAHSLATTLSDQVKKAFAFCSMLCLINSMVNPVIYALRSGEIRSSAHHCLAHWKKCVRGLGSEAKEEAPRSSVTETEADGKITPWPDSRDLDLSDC
# assayText: Agonist activity at human recombinant CB2 receptor expressed in Sf9 cells by GTP-europium binding assay relative to CP-55940

| compoundSmiles | quantityUnit | Emax |
| --- | --- | --- |
| N#Cc1cc(NCCCc2nc(-c3ccc(F)cc3Cl)no2)cnc1OCC(F)(F)F | % | 110 |
| Fc1ccc(-c2noc(CCCNc3cnc4ccc(Cl)cc4c3)n2)c(Cl)c1 | % | 110 |
| CCn1c2ccccc2c2cc(NC(=O)CCc3nc(-c4ccc(F)cc4C)no3)ccc21 | % | 120 |
| O=C(CCc1nc(-c2ccc(F)cc2Cl)no1)Nc1ccc(C(F)(F)F)nc1 | % | 120 |
| CCn1c2ccccc2c2cc(NC(=O)CCc3nc(-c4ccc(F)cc4)no3)ccc21 | % | 95 |
| O=C(CCc1nc(-c2ccc(F)cc2Cl)no1)Nc1cnc2ncc(Cl)cc2c1 | % | 110 |
| CC(C)c1ccc(NC(=O)CCc2nc(-c3ccc(F)cc3Cl)no2)cc1 | % | 130 |
| CCn1c2ccccc2c2cc(NC(=O)CCc3noc(-c4ccccc4F)n3)ccc21 | % | 76 |
| O=C(CCc1nc(-c2ccc(F)cc2Cl)no1)Nc1ccc(C(F)(F)F)c(Cl)c1 | % | 120 |
| O=C(CCc1nc(-c2ccc(F)cc2Cl)no1)Nc1ccc(C(F)(F)F)cc1Cl | % | 41 |
| CCn1c2ccccc2c2cc(NC(=O)CCn3nnc(-c4ccccc4F)n3)ccc21 | % | 93 |
| CCn1c2ccccc2c2cc(NC(=O)CCc3nc(-c4ccc(F)cc4C#N)no3)ccc21 | % | 120 |
| CCn1c2ccccc2c2cc(NC(=O)CCc3nc(-c4ccccc4C(C)C)no3)ccc21 | % | 88 |
| CCn1c2ccccc2c2cc(NC(=O)CCc3nc(-c4ccc(F)cc4Cl)no3)ccc21 | % | 98 |

====

Listing: EC50 of selected compounds
# measurementTarget: UniProt:P21554
# assayText: Agonist activity at human recombinant CB1 receptor expressed in CHO-K1 cells assessed as inhibition of forskolin-stimulated intracellular cAMP level
# Assay type: functional, cell-based
outcomeMeasure: EC50

| compoundSmiles | measurementTarget | endpointResult |
| --- | --- | --- |
| O=C(CCc1nc(-c2ccc(F)cc2Cl)no1)Nc1cnc2ccc(Cl)cc2c1 | UniProt:P21554 | 710 nM |
| CCn1c2ccccc2c2cc(NC(=O)CCc3nc(-c4ccccc4F)no3)ccc21 | UniProt:P21554 | > 1000 nM |
| N#Cc1cc(NCCCc2nc(-c3ccc(F)cc3Cl)no2)cnc1OCC(F)(F)F | UniProt:P21554 | > 1000 nM |
| CCn1c2ccccc2c2cc(NC(=O)CCc3nc(-c4ccc(F)cc4C#N)no3)ccc21 | UniProt:P21554 | > 1000 nM |
| N#Cc1cc(NC(=O)CCc2nc(-c3ccc(F)cc3Cl)no2)cnc1OCC(F)(F)F | UniProt:P21554 | > 1000 nM |
| Fc1ccc(-c2noc(CCCNc3cnc4ccc(OC(F)(F)F)cc4c3)n2)c(Cl)c1 | UniProt:P21554 | 850 nM |
| CCn1c2ccccc2c2cc(NC(=O)CCc3nc(C4CCOCC4)no3)ccc21 | UniProt:P21554 | > 1000 nM |
| CCn1c2ccccc2c2cc(NC(=O)CCc3nc(-c4ccc(F)cc4)no3)ccc21 | UniProt:P21554 | 330 nM |
| CCn1c2ccccc2c2cc(NC(=O)CCc3nc(-c4ccncc4C#N)no3)ccc21 | UniProt:P21554 | > 1000 nM |
| CC(C)(C)c1cc(NCCCc2nc(-c3ccc(F)cc3Cl)no2)no1 | UniProt:P21554 | > 1000 nM |

====

Listing: pEC50 of selected compounds
# measurementTarget: UniProt:P21554
# assayText: Agonist activity at human CB1 receptor expressed in Sf9 cells by GTP-europium binding assay
pEC50: −log10 of the molar value.
outcomeMeasure: pEC50

| compoundSmiles | measurementTarget | outcomeMeasure | endpointResult |
| --- | --- | --- | --- |
| CC(C)(C)c1cc(NCCCc2nc(-c3ccc(F)cc3Cl)no2)no1 | UniProt:P21554 | pEC50 | 6.17 |
| CCn1c2ccccc2c2cc(NC(=O)CCc3nc(-c4ccccc4F)co3)ccc21 | UniProt:P21554 | pEC50 | < 5.00 |
| O=C(CCc1nc(-c2ccc(F)cc2Cl)no1)Nc1ccc(C(F)(F)F)nc1 | UniProt:P21554 | pEC50 | 5.55 |
| CCn1c2ccccc2c2cc(NC(=O)CCc3nc(-c4ccccc4F)no3)ccc21 | UniProt:P21554 | pEC50 | < 5.00 |
| O=C(CCc1nc(-c2ccc(F)cc2Cl)no1)Nc1cnc2ccc(Cl)cc2c1 | UniProt:P21554 | pEC50 | 9.05 |
| O=C(CCc1nc(-c2ccc(F)cc2Cl)no1)Nc1cnc2ncc(Cl)cc2c1 | UniProt:P21554 | pEC50 | 5.64 |
| O=C(CCc1nc(-c2ccc(F)cc2Cl)no1)Nc1ccc(C(F)(F)F)cc1 | UniProt:P21554 | pEC50 | < 5.00 |
| CCn1c2ccccc2c2cc(NC(=O)CCc3nc(-c4cccc(Cl)c4)no3)ccc21 | UniProt:P21554 | pEC50 | < 5.00 |
| CC(C)(C)c1ncc(NC(=O)CCc2nc(-c3ccc(F)cc3Cl)no2)cn1 | UniProt:P21554 | pEC50 | < 5.00 |
| N#Cc1cc(NC(=O)CCc2nc(-c3ccc(F)cc3Cl)no2)cnc1OCC(F)(F)F | UniProt:P21554 | pEC50 | < 5.00 |
| CCn1c2ccccc2c2cc(NC(=O)CCc3cc(-c4ccccc4F)n(C)n3)ccc21 | UniProt:P21554 | pEC50 | < 5.00 |
| CCn1c2ccccc2c2cc(NC(=O)CCc3nc(-c4ccc(F)cc4C#N)no3)ccc21 | UniProt:P21554 | pEC50 | 6.15 |
| CCn1c2ccccc2c2cc(NC(=O)CCc3nc(C4CCOCC4)no3)ccc21 | UniProt:P21554 | pEC50 | < 5.00 |
| CC(C)c1ccc(NC(=O)CCc2nc(-c3ccc(F)cc3Cl)no2)cc1 | UniProt:P21554 | pEC50 | 5.70 |
| CCn1c2ccccc2c2cc(NC(=O)CCc3nc(-c4ccncc4C#N)no3)ccc21 | UniProt:P21554 | pEC50 | < 5.00 |
| O=C(CCc1nc(-c2ccc(F)cc2Cl)no1)Nc1ccc(C(F)(F)F)c(Cl)c1 | UniProt:P21554 | pEC50 | < 5.00 |

All values here come from ChEMBL document CHEMBL1156631.
